Recorded values, source the Immune Epitope Database (IEDB).

# target-entity: HLA-B*53:01
# measurement-description: IEDB peptide-MHC binding, purified MHC/competitive/radioactivity; filed as Kd, often an IC50 or EC50 that approximates it; bounds were set here for any values at or beyond the usual limits of such assays
# setup-conditions: source organism: Mammarenavirus machupoense
metric: Kd (nM)
Give bare numbers, in nM.

Query :: Given the sequence TPNQPSAEF , write its reported Kd.
Result :: 565

----------
# target-entity: HLA-A*30:01
# measurement-description: IEDB peptide-MHC binding, purified MHC/competitive/radioactivity; filed as Kd, often an IC50 or EC50 that approximates it; bounds were set here for any values at or beyond the usual limits of such assays
# setup-conditions: source organism: Dengue virus 4 Philippines/H241/1956
metric: Kd (µM)
One number for each entry, in µM.

# batch: return Kd for each of the 4 sequences below
1. KTHTLWSNG
2. SGALWDVPSP
3. KLRIKGMSY
4. VMKRYSAPFE

Result ::
[0.0814, 11, 0.0186, 5.92]
